- System: IFNγ-Induced NO Production
- EXPERIMENT_NOTES: Nitric Oxide Suppression Assay (Suppression of IFNγ-Induced NO Production)
- Type: cell-based
- STUDY_CONDITIONS: RAW264.7; RAW 264.7 mouse macrophage cells; 2 hour pre-treatment with compound (3 μM to 0.3 nM, 10 point curve); 20 ng/mL interferon gamma, ~18 hour; Griess detection; n=2-3 in duplicates
QUANTITY: IC50 (nM)

compound=Cc1nc(-c2cnn(C)c2)c2c(n1)[C@@]1(c3ccccc3)C=C(C#N)C(=O)[C@@H](C)[C@@H]1CC2 quantity=IC50 numeric_result=4.86
compound=C[C@@H]1C(=O)C(C#N)=C[C@]2(c3ccccc3)c3nn(C)c(-c4cccc(-c5ccc(C(N)=O)cc5)c4)c3CC[C@@H]12 quantity=IC50 numeric_result=13.9
compound=C[C@@H]1C(=O)C(C#N)=C[C@]2(c3ccccc3)c3nn(S(C)(=O)=O)cc3CC[C@@H]12 quantity=IC50 numeric_result=69.3
compound=COc1ccc([C@]23C=C(C#N)C(=O)[C@@H](C)[C@@H]2CCc2c(-c4cncnc4)nc(C)nc23)cc1 quantity=IC50 numeric_result=21.8
compound=C[C@@H]1C(=O)C(C#N)=C[C@]2(c3ccccc3)c3nc(C(C)(C)C)ncc3CC[C@@H]12 quantity=IC50 numeric_result=33.8
compound=C[C@@H]1C(=O)C(C#N)=C[C@]2(c3ccccc3)c3nn(C)c(-c4cccc(-c5cccc(NS(C)(=O)=O)c5)c4)c3CC[C@@H]12 quantity=IC50 numeric_result=2.26
compound=COC(=O)n1cc2c(n1)[C@@]1(c3ccccc3)C=C(C#N)C(=O)[C@@H](C)[C@@H]1CC2 quantity=IC50 numeric_result=25.9
compound=Cc1nc(-c2cncnc2)c2c(n1)[C@@]1(c3ccccc3)C=C(C#N)C(=O)[C@@H](C)[C@@H]1CC2 quantity=IC50 numeric_result=31.8
compound=Cc1nc(-c2ccc(O)nc2)c2c(n1)[C@@]1(c3ccccc3)C=C(C#N)C(=O)[C@@H](C)[C@@H]1CC2 quantity=IC50 numeric_result=311
compound=Cc1nc(-c2ccnnc2)c2c(n1)[C@@]1(c3ccccc3)C=C(C#N)C(=O)[C@@H](C)[C@@H]1CC2 quantity=IC50 numeric_result=49.4
compound=C[C@@H]1C(=O)C(C#N)=C[C@]2(c3ccccc3)c3nn(C(=O)CNC(=O)OC(C)(C)C)cc3CC[C@@H]12 quantity=IC50 numeric_result=53.6
compound="COc1cccc([C@]23C=C(C#N)C(=O)[C@@H](C)[C@@H]2CCc2cnn(C)c23)c1 (racemic)" quantity=IC50 numeric_result=41.3
compound=COC(=O)c1cccc([C@]23C=C(C(N)=O)C(=O)[C@@H](C)[C@@H]2CCc2cncnc23)c1 quantity=IC50 numeric_result=2280
compound=C[C@@H]1C(=O)C(C#N)=C[C@]2(c3ccccc3)C3=NN(C)[C@@H](c4ccccc4)[C@H]3CC[C@@H]12 quantity=IC50 numeric_result=34.5

Every entry's value here was drawn from patent US9464082B2.
